Ref: ChEMBL document CHEMBL5724914

- Experimental Protocol: The drug is tested on WLS-010 corresponding to human gut metagenome with ENA study accession number: PRJEB37062 and ENA sample accession number: ERS12561743 for biotransformation under anaerobic condition. The drug concentrations were measured over 9 timepoints collected between 0 and 24 hours of incubation by liquid-chromatography-coupled mass spectrometry (LC–MS); also: call rule not given here
- Assay Setup: 2 µM
Observable: Bacterial Biotransformation

CN1CCN(C(=O)O[C@H]2c3nccnc3C(=O)N2c2ccc(Cl)cn2)CC1 = Compound NOT metabolized
OC(CCN1CCCCC1)(c1ccccc1)C1CCCCC1 (stereo not drawn) = Compound NOT metabolized
Cc1ccc(/C(=C\CN2CCCC2)c2ccccn2)cc1 = Compound NOT metabolized

* * *

- Assay Setup: human gut metagenome, 24 h, 2 µM
Observable: Bacterial Biotransformation

CN1CCN(CC/C=C2/c3ccccc3Sc3ccc(S(=O)(=O)N(C)C)cc32)CC1 = Compound metabolized
COC(=O)Nc1nc2ccc(C(=O)c3ccccc3)cc2[nH]1 = Compound metabolized
CC(CN1c2ccccc2Sc2ccccc21)N(C)C (configuration not stated) = Compound NOT metabolized
NS(=O)(=O)c1cc2c(cc1Cl)N=C(CSCc1ccccc1)NS2(=O)=O [BENZTHIAZIDE] = Compound NOT metabolized
CN1C(=O)CC(C)(c2ccccc2)C1=O (configuration not stated) [METHSUXIMIDE] = Compound NOT metabolized

Prompt: Form field: reported Bacterial Biotransformation of COC(=O)C1=C(C)NC(C)=C(C(=O)OC(C)C)C1c1cccc2nonc12 (configuration not stated)
Completion: Compound metabolized

Prompt: Form field: reported Bacterial Biotransformation of O=C1[C@H](CC[C@H](O)c2ccc(F)cc2)[C@@H](c2ccc(O)cc2)N1c1ccc(F)cc1
Completion: Compound metabolized

* * *

- Assay Setup: human gut metagenome, 24 h, 2 µM
Observable: Bacterial Biotransformation

Below, 10 molecules whose answers are already recorded.
CS(=O)(=O)O.OC(CCN1CCCCC1)(c1ccccc1)c1ccccc1 [PRIDINOL METHANESULFONATE] = Compound metabolized
CN1C(=O)CC(C)(c2ccccc2)C1=O (stereo not given) [METHSUXIMIDE] = Compound metabolized
O=C1[C@H](CC[C@H](O)c2ccc(F)cc2)[C@@H](c2ccc(O)cc2)N1c1ccc(F)cc1 = Compound NOT metabolized
CN/C(=N/CCSCc1nc[nH]c1C)NC#N = Compound metabolized
CNC(=C[N+](=O)[O-])NCCSCc1csc(CN(C)C)n1 = Compound metabolized
CN1CCc2c(c3ccccc3n2Cc2ccccc2)C1.CN1CCc2c(c3ccccc3n2Cc2ccccc2)C1.O=S(=O)(O)c1cccc2c(S(=O)(=O)O)cccc12 = Compound metabolized
Nc1c2c(nc3ccccc13)CCCC2 = Compound metabolized
Fc1ccc([C@@H]2CCNC[C@H]2COc2ccc3c(c2)OCO3)cc1 = Compound metabolized
CC(C)c1nc(CN(C)C(=O)N[C@H](C(=O)N[C@@H](Cc2ccccc2)C[C@H](O)[C@H](Cc2ccccc2)NC(=O)OCc2cncs2)C(C)C)cs1 = Compound metabolized
O=c1n(CCCN2CCN(c3cccc(Cl)c3)CC2)nc2ccccn12 = Compound metabolized

Prompt: Form field: reported Bacterial Biotransformation of CNCCC(Oc1ccc(C(F)(F)F)cc1)c1ccccc1 (stereo not given)
Completion: Compound NOT metabolized

Prompt: Form field: reported Bacterial Biotransformation of CC(C)(C#N)c1cc(Cn2cncn2)cc(C(C)(C)C#N)c1
Completion: Compound metabolized

Prompt: Form field: reported Bacterial Biotransformation of COc1ccc2c(c1OC)C(=O)O[C@@H]2[C@H]1c2c(cc3c(c2OC)OCO3)CCN1C
Completion: Compound metabolized

Prompt: Form field: reported Bacterial Biotransformation of CCCCc1nc(Cl)c(CO)n1Cc1ccc(-c2ccccc2-c2nn[nH]n2)cc1
Completion: Compound metabolized

Prompt: Form field: reported Bacterial Biotransformation of CCC1(c2ccc(N)cc2)CCC(=O)NC1=O (stereo not given) [AMINOGLUTETHIMIDE]
Completion: Compound NOT metabolized

Prompt: Form field: reported Bacterial Biotransformation of NS(=O)(=O)c1cc2c(cc1Cl)N=C(CSCc1ccccc1)NS2(=O)=O [BENZTHIAZIDE]
Completion: Compound NOT metabolized

Prompt: Form field: reported Bacterial Biotransformation of COc1cc2c(c(OC)c1OC)-c1ccc(OC)c(=O)cc1[C@@H](NC(C)=O)CC2
Completion: Compound metabolized

Prompt: Form field: reported Bacterial Biotransformation of Cc1ccc(-c2nc3ccc(C)cn3c2CC(=O)N(C)C)cc1
Completion: Compound metabolized

Prompt: Form field: reported Bacterial Biotransformation of COc1c2occc2cc2ccc(=O)oc12
Completion: Compound metabolized

Prompt: Form field: reported Bacterial Biotransformation of COc1ccc(CCN(C)CCCC(C#N)(c2ccc(OC)c(OC)c2)C(C)C)cc1OC (stereo not given)
Completion: Compound metabolized

* * *

- Assay Setup: human gut metagenome, 24 h, 2 µM
Observable: Bacterial Biotransformation

CCOC(=O)[C@H](CCc1ccccc1)N[C@@H](C)C(=O)N1[C@H](C(=O)O)C[C@H]2CCCC[C@@H]21 = Compound metabolized
NC(CO)(CO)CO.O=C(c1ccccc1)c1ccc2n1CCC2C(=O)O (centres undefined) = Compound metabolized
C[C@@H]1CC[C@H]2[C@@H](C)C(=O)O[C@@H]3O[C@@]4(C)CC[C@@H]1[C@]32OO4 = Compound metabolized

* * *

- Experimental Protocol: The drug is tested on WLS-310 corresponding to human gut metagenome with ENA study accession number: PRJEB37062 and ENA sample accession number: ERS12561785 for biotransformation under anaerobic condition. The drug concentrations were measured over 9 timepoints collected between 0 and 24 hours of incubation by liquid-chromatography-coupled mass spectrometry (LC–MS)
- Assay Setup: 2 µM
Observable: Bacterial Biotransformation

Below, 7 molecules whose answers are already recorded.
CC(=O)O[C@]1(C(C)=O)CC[C@H]2[C@@H]3C=C(Cl)C4=CC(=O)[C@@H]5C[C@@H]5[C@]4(C)[C@H]3CC[C@@]21C [CYPROTERONE ACETATE] = Compound metabolized
Cc1ccc(-c2cc(C(F)(F)F)nn2-c2ccc(S(N)(=O)=O)cc2)cc1 = Compound NOT metabolized
O=c1[nH]c2ccccc2n1CCCN1CCC(n2c(=O)[nH]c3cc(Cl)ccc32)CC1 = Compound NOT metabolized
CN(C)C(=O)C(CCN1CCC(O)(c2ccc(Cl)cc2)CC1)(c1ccccc1)c1ccccc1 [LOPERAMIDE] = Compound metabolized
CCC(COC(=O)c1cc(OC)c(OC)c(OC)c1)(c1ccccc1)N(C)C.O=C(O)/C=C\C(=O)O (stereo not drawn) = Compound metabolized
CC(C(=O)O)c1ccc2c(c1)Cc1cccnc1O2 (stereo not drawn) = Compound metabolized
CN1C(=O)CCS(=O)(=O)C1c1ccc(Cl)cc1 (stereo not drawn) = Compound NOT metabolized

Now look at this entry.
Prompt: Form field: reported Bacterial Biotransformation of CS(=O)(=O)O.OC(CCN1CCCCC1)(c1ccccc1)c1ccccc1 [PRIDINOL METHANESULFONATE]
Completion: Compound metabolized

* * *

- Assay Setup: human gut metagenome, 24 h, 2 µM
Observable: Bacterial Biotransformation

Below, 5 compounds whose answers are already recorded.
O=C(O)CCc1nc(-c2ccccc2)c(-c2ccccc2)o1 = Compound metabolized
CC[C@H](C)C(=O)O[C@H]1C[C@@H](C)C=C2C=C[C@H](C)[C@H](CC[C@@H]3C[C@@H](O)CC(=O)O3)[C@H]21 = Compound NOT metabolized
O=c1n(CCCN2CCN(c3cccc(Cl)c3)CC2)nc2ccccn12 = Compound metabolized
OCCOCCN1CCN(C2=Nc3ccccc3Sc3ccccc32)CC1 = Compound metabolized
O=c1[nH]c2ccccc2n1CCCN1CCC(n2c(=O)[nH]c3cc(Cl)ccc32)CC1 = Compound NOT metabolized

Prompt: Form field: reported Bacterial Biotransformation of CC(C)NCC(O)COc1ccc(CCOCC2CC2)cc1 (stereo unspecified)
Completion: Compound metabolized

* * *

- Experimental Protocol: The drug is tested on WLS-073 corresponding to human gut metagenome with ENA study accession number: PRJEB37062 and ENA sample accession number: ERS12561749 for biotransformation under anaerobic condition. The drug concentrations were measured over 9 timepoints collected between 0 and 24 hours of incubation by liquid-chromatography-coupled mass spectrometry (LC–MS)
- Assay Setup: 2 µM
Observable: Bacterial Biotransformation

OC(CCN1CCCCC1)(c1ccccc1)C1CCCCC1 (stereo unspecified) [TRIHEXYPHENIDYL] = Compound metabolized
C#C[C@]1(O)CC[C@H]2[C@@H]3CCC4=CC(=O)CC[C@@H]4[C@H]3CC[C@@]21CC [LEVONORGESTREL] = Compound NOT metabolized
COc1ccccc1N1CCN(CC(O)COc2cccc3ccccc23)CC1 (stereo unspecified) [NAFTOPIDIL] = Compound NOT metabolized
Clc1ccc(Cn2c(CN3CCCC3)nc3ccccc32)cc1 [CLEMIZOLE] = Compound NOT metabolized
CCOC(=O)[C@H](CCc1ccccc1)N[C@H]1CCc2ccccc2N(CC(=O)O)C1=O [BENAZEPRIL] = Compound metabolized
CC(Oc1c(Cl)cccc1Cl)C1=NCCN1 (stereo unspecified) [LOFEXIDINE] = Compound NOT metabolized
CCN1CCCC1CNC(=O)c1cc(S(N)(=O)=O)ccc1OC (stereo unspecified) [SULPIRIDE] = Compound NOT metabolized
CN/C(=N/CCSCc1nc[nH]c1C)NC#N [CIMETIDINE] = Compound NOT metabolized

Prompt: Form field: reported Bacterial Biotransformation of O=C(CCCN1CCC(O)(c2ccc(Cl)cc2)CC1)c1ccc(F)cc1 [HALOPERIDOL]
Completion: Compound NOT metabolized

Prompt: Form field: reported Bacterial Biotransformation of CCCCCOC(=O)Nc1nc(=O)n([C@@H]2O[C@H](C)[C@@H](O)[C@H]2O)cc1F [CAPECITABINE]
Completion: Compound metabolized

Prompt: Form field: reported Bacterial Biotransformation of CCN(CC)CC#CCOC(=O)C(O)(c1ccccc1)C1CCCCC1.Cl (stereo unspecified) [OXYBUTYNIN CHLORIDE]
Completion: Compound NOT metabolized

Prompt: Form field: reported Bacterial Biotransformation of C#C[C@]1(O)CC[C@H]2[C@@H]3CCC4=Cc5oncc5C[C@]4(C)[C@H]3CC[C@@]21C [DANAZOL]
Completion: Compound metabolized

Prompt: Form field: reported Bacterial Biotransformation of OC(Cn1cncn1)(Cn1cncn1)c1ccc(F)cc1F [FLUCONAZOLE]
Completion: Compound NOT metabolized

Prompt: Form field: reported Bacterial Biotransformation of CCc1nn(CCCN2CCN(c3cccc(Cl)c3)CC2)c(=O)n1CCOc1ccccc1 [NEFAZODONE]
Completion: Compound NOT metabolized

Prompt: Form field: reported Bacterial Biotransformation of Cc1cc2c(cc1S(N)(=O)=O)S(=O)(=O)CCC2
Completion: Compound NOT metabolized
